src = patent US20240217990A1

# experimentalSystem: TLR8 (Homo sapiens, UniProt Q9NR97)
# Construct: Human peripheral blood mononuclear cells (PBMCs) consist of lymphocytes, monocytes and dendritic cells that express TLR7, TLR8 and TLR9; endogenous in cells
# Sequence (Q9NR97 27-1041): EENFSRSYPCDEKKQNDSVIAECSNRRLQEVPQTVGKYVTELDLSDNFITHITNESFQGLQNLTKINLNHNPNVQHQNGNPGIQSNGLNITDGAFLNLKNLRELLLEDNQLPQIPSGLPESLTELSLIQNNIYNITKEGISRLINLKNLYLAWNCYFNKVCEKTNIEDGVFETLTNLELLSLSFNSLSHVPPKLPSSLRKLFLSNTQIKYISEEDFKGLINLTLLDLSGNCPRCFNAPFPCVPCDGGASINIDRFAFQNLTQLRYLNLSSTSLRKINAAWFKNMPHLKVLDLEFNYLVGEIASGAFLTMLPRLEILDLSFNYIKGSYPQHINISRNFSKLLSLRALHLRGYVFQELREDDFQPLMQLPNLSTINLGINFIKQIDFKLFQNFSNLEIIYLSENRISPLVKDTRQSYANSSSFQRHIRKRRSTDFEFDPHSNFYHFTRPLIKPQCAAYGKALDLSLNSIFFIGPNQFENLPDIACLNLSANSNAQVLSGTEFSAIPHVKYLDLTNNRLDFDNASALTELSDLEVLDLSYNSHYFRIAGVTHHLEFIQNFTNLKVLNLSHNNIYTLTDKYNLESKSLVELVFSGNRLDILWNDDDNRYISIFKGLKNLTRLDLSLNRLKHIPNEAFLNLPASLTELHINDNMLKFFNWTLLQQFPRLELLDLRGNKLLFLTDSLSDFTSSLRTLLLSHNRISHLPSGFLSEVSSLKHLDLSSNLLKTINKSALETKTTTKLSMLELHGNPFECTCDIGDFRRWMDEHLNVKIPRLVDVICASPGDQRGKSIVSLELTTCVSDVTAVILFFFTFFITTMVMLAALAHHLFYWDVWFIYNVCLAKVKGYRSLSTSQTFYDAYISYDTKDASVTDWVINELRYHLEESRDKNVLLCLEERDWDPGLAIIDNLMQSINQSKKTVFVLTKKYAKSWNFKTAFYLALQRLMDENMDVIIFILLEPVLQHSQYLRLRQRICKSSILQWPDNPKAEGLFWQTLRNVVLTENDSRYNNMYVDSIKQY
# procedureSummary: TLR8 human PBMC cell-based assay (antagonist, Compound A stimulated cytokine release)
# measurementSetup: human PBMCs; TLR8 agonist Compound A 800 nM, 6 hours; cytokines (TNFa and IL 12p40) in supernatant; read-out: TLR-8 EC50
observationType: EC50
Reply with the number and its unit after it.

Reference set, count: 5
Cc1cc(-c2[nH]c3cc(C(=O)N(C)C4CCN(CC(N)=O)CC4)sc3c2C(C)C)cn2ncnc12 = 17.4 nM
Cc1cc(-c2[nH]c3cc(-c4nc5ccc(N6CCNCC6)cc5n4C)sc3c2C(C)C)cn2ncnc12 = 14.2 nM
Cc1cc(-c2[nH]c3cc(C(=O)N4C[C@H](N)[C@@H]5CC[C@H]4C5)sc3c2C(C)C)cn2ncnc12 = 12.3 nM
Cc1cc(-c2[nH]c3cc(C4CCC5(CC4)CN(C(=O)[C@@H]4COCCN4)C5)sc3c2C(C)C)cn2ncnc12 = 15.2 nM
Cc1cc(-c2[nH]c3cc(C(=O)N4CC[C@H](N)C4)sc3c2C(C)C)cc(C)n1 = 35 nM

Req: Returns the measured EC50 for the input compound. Input: Cc1cc(-c2[nH]c3cc(C(=O)N(C)C4CNC4)sc3c2C(C)C)cn2ncnc12
Resp: 38 nM

Req: Report EC50 for Cc1cc(-c2[nH]c3cc(C(=O)N(C)CCN(C)C)sc3c2C(C)C)cn2ncnc12 please.
Resp: 29.8 nM

Req: May I ask what EC50 has been recorded for Cc1cc(-c2[nH]c3cc(C4CCC(NC5CC6CC5O6)CC4)sc3c2C(C)C)cn2ncnc12 (stereo not shown) ?
Resp: 9.7 nM

Req: What value of EC50 has been recorded for this entry: Cc1cc(-c2[nH]c3cc(C4=NC5(CCNCC5)CO4)sc3c2C(C)C)cn2ncnc12
Resp: 4.6 nM

Req: Data request, read-out EC50, for Cc1cc(-c2[nH]c3cc(C(=O)N(C)CCN(C)C4CC4)sc3c2C(C)C)cn2ncnc12
Resp: 22.5 nM

Req: State the recorded EC50 for this entry: Cc1cc(-c2[nH]c3cc(-c4cnn(C5CCNC5)c4)sc3c2C(C)C)cn2ncnc12 (stereo not shown)
Resp: 1.6 nM

Req: Would you kindly share the measured EC50 for Cc1cc(-c2[nH]c3cc(C(=O)N4CC(N(C)C)C4)sc3c2C(C)C)cn2ncnc12 ?
Resp: 2.4 nM

Req: Fill blank: measured EC50 of the compound Cc1cc(-c2[nH]c3cc(-c4nc(C5CCNCC5)no4)sc3c2C(C)C)cc(C)n1 is ____.
Resp: 14.9 nM

###

# experimentalSystem: TLR7 (Homo sapiens, UniProt Q9NYK1)
# Construct: Human peripheral blood mononuclear cells (PBMCs) consist of lymphocytes, monocytes and dendritic cells that express TLR7, TLR8 and TLR9; endogenous in cells
# Sequence (Q9NYK1 27-1049): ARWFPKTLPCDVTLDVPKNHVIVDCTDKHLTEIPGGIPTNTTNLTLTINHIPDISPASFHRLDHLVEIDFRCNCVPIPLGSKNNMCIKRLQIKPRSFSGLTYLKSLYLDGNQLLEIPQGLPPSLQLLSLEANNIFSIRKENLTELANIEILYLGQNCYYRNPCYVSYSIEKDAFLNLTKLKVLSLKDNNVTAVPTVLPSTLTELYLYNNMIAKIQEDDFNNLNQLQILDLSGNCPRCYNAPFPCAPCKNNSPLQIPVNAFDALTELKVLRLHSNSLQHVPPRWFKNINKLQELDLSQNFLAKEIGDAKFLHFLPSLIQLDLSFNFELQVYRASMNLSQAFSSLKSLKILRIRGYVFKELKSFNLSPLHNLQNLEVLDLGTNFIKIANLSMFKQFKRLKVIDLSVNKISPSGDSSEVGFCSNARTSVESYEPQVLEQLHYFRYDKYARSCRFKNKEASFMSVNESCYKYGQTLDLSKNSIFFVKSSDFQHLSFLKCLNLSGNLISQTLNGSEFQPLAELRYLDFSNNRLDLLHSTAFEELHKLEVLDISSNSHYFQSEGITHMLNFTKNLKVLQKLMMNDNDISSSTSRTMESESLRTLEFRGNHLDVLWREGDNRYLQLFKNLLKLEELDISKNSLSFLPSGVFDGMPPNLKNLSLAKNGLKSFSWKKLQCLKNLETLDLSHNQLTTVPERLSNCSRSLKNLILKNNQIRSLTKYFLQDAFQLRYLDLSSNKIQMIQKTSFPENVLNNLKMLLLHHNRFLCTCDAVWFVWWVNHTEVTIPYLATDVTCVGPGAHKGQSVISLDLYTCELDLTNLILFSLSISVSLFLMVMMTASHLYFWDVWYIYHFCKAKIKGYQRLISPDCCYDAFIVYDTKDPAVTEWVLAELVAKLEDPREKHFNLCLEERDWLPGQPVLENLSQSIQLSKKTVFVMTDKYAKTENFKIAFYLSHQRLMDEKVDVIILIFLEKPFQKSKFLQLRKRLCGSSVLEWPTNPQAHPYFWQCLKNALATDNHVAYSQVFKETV
# procedureSummary: TLR7 human PBMC cell-based assay (antagonist, GS-986 stimulated cytokine release)
# measurementSetup: human PBMCs; TLR7 agonist GS-986 400 nM, 6 hours; cytokines (IL-6 and IFNα) in supernatant; read-out: TLR-7 EC50
pEC50: −log10 of the molar value.
Criterion: pEC50 meeting or surpassing 9. Met: YES. Not met: NO.

CC(C)c1c(-c2ccc3nccn3c2)[nH]c2cc(C(=O)N3CCNCC3)sc12 [Example 67] = NO
Cc1cc(-c2[nH]c3cc(C(=O)N4CC[C@H](N)C4)sc3c2C(C)C)cn(C)c1=O [Example 35] = NO

Moving on to another molecule below.
Req: Determine whether this molecule has pEC50 no lower than 9: Cc1cc(-c2[nH]c3cc(C4CCC5CNCC5C4)sc3c2C(C)C)cn2ncnc12 (stereo not drawn) [Example 157]
Resp: YES
